This collection of values is drawn from ChEMBL document CHEMBL1255441.

test: Clearance in infant during extracorporeal membrane oxygenation at 50 mg/kg, iv dosed 2 to 3 times per day as bolus dose; assay type: ADME, organism-based; design: dose 50 mg/kg, route intravenous; settings: human, in vivo
QUANTITY_MEASURED: clearance
Please answer in the form of a number followed by its unit of measurement.

Retrieve clearance measured for `CO/N=C(\C(=O)N[C@@H]1C(=O)N2C(C(=O)O)=C(COC(C)=O)CS[C@H]12)c1csc(N)n1` and print it. 6 mL/min

* * *

experiment: Clearance in infant weighing 2 to 6.2 kg weight at 50 mg/kg, iv dosed 2 to 3 times per day as bolus dose; type: ADME, organism-based; set-up: dose 50 mg/kg, route intravenous; settings: human, in vivo
QUANTITY_MEASURED: clearance (mL/min)
The answer is to be given in mL/min; state only the numeric part.

Output measured clearance for this item: `CO/N=C(\C(=O)N[C@@H]1C(=O)N2C(C(=O)O)=C(COC(C)=O)CS[C@H]12)c1csc(N)n1` 5
